Provide the recorded score for the entries that follow.
System: Plasmodium falciparum
assay-notes: In vitro drug screening model against Plasmodium falciparum (drug sensitivity assay, Malstat LDH read-out)
Type: cell-based
run-parameters: Table 2; score in brackets after the IC50, scale not defined
Numbers only.

As a guide, the following entries are already answered.
Entry c1ccc2[nH]c(-c3ccc(OCCCCCOc4ccc(-c5nc6ccccc6[nH]5)cc4)cc3)nc2c1 [Compound 3] has what score?
3

Entry c1ccc(-c2nc3ccccc3[nH]2)c(OCCCCCOc2ccccc2-c2nc3ccccc3[nH]2)c1 [Compound 7] has what score?
2

Entry c1cc(OCCCCCOc2cccc(-c3nc4ccccc4[nH]3)c2)cc(-c2nc3ccccc3[nH]2)c1 [Compound 6] has what score?
2

# next molecule below
Entry c1ccc2[nH]c(-c3ccc(OCCCOc4ccc(-c5nc6ccccc6[nH]5)cc4)cc3)nc2c1 [Compound 1] has what score?
1

====

Provide the recorded melting point for the entries that follow.

As a guide, the following entries are already answered.
Entry c1ccc2[nH]c(-c3ccc(OCCCCCOc4ccc(-c5nc6ccccc6[nH]5)cc4)cc3)nc2c1 has what melting point?
> 300 °C

Entry c1ccc2[nH]c(-c3ccc(OCCCOc4ccc(-c5nc6ccccc6[nH]5)cc4)cc3)nc2c1 has what melting point?
> 300 °C

Take each entry in turn and give its melting point.
1. c1ccc2[nH]c(-c3ccc(OCCCCCCCOc4ccc(-c5nc6ccccc6[nH]5)cc4)cc3)nc2c1
2. c1ccc2[nH]c(-c3ccc(OCCCCCCOc4ccc(-c5nc6ccccc6[nH]5)cc4)cc3)nc2c1
3. c1ccc(-c2nc3ccccc3[nH]2)c(OCCCCCOc2ccccc2-c2nc3ccccc3[nH]2)c1
4. c1cc(OCCCCCOc2cccc(-c3nc4ccccc4[nH]3)c2)cc(-c2nc3ccccc3[nH]2)c1
5. c1ccc2[nH]c(-c3ccc(OCCCCOc4ccc(-c5nc6ccccc6[nH]5)cc4)cc3)nc2c1

1: 298 to 301 °C; 2: > 300 °C; 3: 190 to 193 °C; 4: 240 to 243 °C; 5: > 300 °C
